TEST: log P measured in octanol/phosphate buffer saline pH 7.4
Format: physicochemical
MEASUREMENT KIND: logP

Cc1cccc(F)c1N1CCC(N2Cc3cn(CC(C)(F)F)nc3N(Cc3ccccc3C(F)(F)F)C2=O)CC1 [COMPOUND] : 6.9
